- Assay: yeast display, Sf9 membrane polyspecificity reagent, FACS + sequencing; frameworks hold sequencing errors
Result type: polyreactivity (PSR sort gate)

>>> measurement("QVQLVESGGGLVQAGGSLRLSCAASGRTFREYAMGWYRHAPGKEREFVAAISESVGSTYYADSVKGRFTISRDNAKNTVYLQMNSLKPEDTAVYYCAKQSRYPSLDADYDYWGQGTQVTVSS")
"low polyreactivity"
>>> measurement("QVQLVESGGGLVQAGGSLRLSCAASGSISKINAMGWYRQAPGKESELGAAINTGDSTYYADSVKGRFTISRDNAKNTVYLQMNSLKPEDTAVYYCAAEGSPTGYDDWGQGTQGTVSS")
"low polyreactivity"
>>> measurement("QVQLVESGGGLVQAGGSLRLSCAASGRIFIEYAMGWYRQAPGKERELVATINSSGGRTYYADSVKGRFTISRDNAKNTVYLQMNSLKPEDTAVYYCAARGSYRGPYNVEYDSWGQGTQVTVSS")
"low polyreactivity"
>>> measurement("QVQLVESGGGLVQAGGSLRLSCAASGRNFTSNSMGLYRQAPGKEREFVAAITTSGASTRYADSVKGRFTISRDNAKNTVYLQMNSLKPEDTAVYYCAAEQRRFTGYDYWGQGTQVTVSS")
"high polyreactivity"

Please find the next sequence below.
Task: Output measured polyreactivity (PSR sort gate) for this item: `QVQLVESGGGLVQAGGSLRLSCAASGSIFFSNVMGWYRQAPGKERELVAAITGRTGSTYYADSVKGRFTISRDNAKNTVYLQMNSLKPEDTAVYYCFSYWPRYWQSGNDYWGQGTQVTVSS`
Output: high polyreactivity

* * *

- Assay: yeast display, Sf9 membrane polyspecificity reagent, FACS + sequencing; frameworks hold sequencing errors
Result type: polyreactivity (PSR sort gate)

Example entries and their recorded answers appear below.
>>> measurement("QVQLVESGGGLVQAGGSLRLSCAASGRTFDYNTMGWYRQAPGKERELVAAISASGGSTYYADSVKGRFTISRDNAKNTVYLQMNSLKPEDTAVYYCAAARAAIVPGYYSWGQGTQVTVSS")
"low polyreactivity"
>>> measurement("QDQHVESGGGLVQAGGSLRLSCAASGLIFNNYAMGWYRQAPGKERELVAPISRTGTSTYYADSVKGRFTISRDNAKNTVYLQMNSLKPEDTAVFYCNAVIQLFEWGWDDEYDYWGQGTQVTVSS")
"low polyreactivity"
>>> measurement("QVQLVESGGGLVQAGGSLRLSCAASGSIFQGYAMGWYRQAPGKERELVAGITSSGGSTHYADSVKGRFTISRDNAKNTVYLQMNSLKPEDTAVYDYWGQGTQVTVSS")
"low polyreactivity"
>>> measurement("QVQLVESGGGLVQAGGSLRLSCAASGFTIRAYVMGSYRQAPGKEREFVADISYRGGGTNYADSVKGRFTISRDNAKNTVYLQMNSLKPEDTAVYYCNARSGSSKSGYYYWGQGTQVTVSS")
"high polyreactivity"

Task: Output measured polyreactivity (PSR sort gate) for this item: `QVQLVESGGRLVQAGGSLRLSCAASGRIIGVNAMGWYRQAPGKERELVATITSGGSTYADSVKGRFTISRDNAKNTVYLQMNSLKPEDTAVYFCNALIYKRVTRYPYVRLMDYWGQGTQVTVSS`
Output: high polyreactivity

Task: Output measured polyreactivity (PSR sort gate) for this item: `QVQLVESGGGLVKAGGSLRLSCAASGRTFLRNAMGWYRQAPGKERELVATITRGGSTYYADSVKGRFTISRDNAKNTVYLQMNSLKPEDTAVYYCAKDITGGFRRPDYGYWGHGTQVTVSS`
Output: low polyreactivity

Task: Output measured polyreactivity (PSR sort gate) for this item: `QVQLVESGGGLVQAGGSLRLSCAASGSTFKTYAMGWYRQAPGKEREFVASISTSGGSTYYADSVKGRFTISRDNAKNTVYLQMNSLKPEDTAVYYCAAKGRSYGVTRMYYWGQGTQVTVSS`
Output: high polyreactivity
